# condition_notes: PAMPA
Where a SMILES comes first, the peptide text is derived from it. [ ]: non-standard residue; d: D form. dNMeF = CN[C@H](Cc1ccccc1)C(=O)O; NMeL = CN[C@@H](CC(C)C)C(=O)O; NMeA = CN[C@@H](C)C(=O)O
Could you please report measured PAMPA_R1 for the items listed next?
Reply: number alone, nothing else.

## Task Entry CC[C@@H](C)[C@H]1NC(=O)[C@H](C)N(C)C(=O)[C@H]([C@@H](C)CC)NC(=O)[C@H]2CCCN2C(=O)[C@H](CC(C)C)N(C)C(=O)[C@@H](C(C)C)NC(=O)[C@H](C)N(C)C(=O)[C@H]([C@@H](C)CC)NC(=O)[C@@H](CC(C)C)NC(=O)[C@@H]2CCCN2C(=O)[C@H]2CCCN2C1=O [Design D11.10] (cyclo([dL]I[NMeA][dV][NMeL][dP]I[NMeA][dI][dP]P)) : reported PAMPA_R1 = ?
## Result 2.19E-06

## Task Entry CC(C)C[C@@H]1NC(=O)[C@H](C)NC(=O)[C@@H]2CCCN2C(=O)[C@H]2CCCN2C(=O)[C@H](Cc2ccccc2)NC(=O)[C@H]2CCCN2C(=O)[C@@H](Cc2ccccc2)N(C)C(=O)[C@@H]2CCCN2C(=O)[C@@H](C)NC(=O)[C@H](CC(C)C)NC1=O [Design D10.49] (cyclo(ALL[dA]P[dNMeF][dP]F[dP]P)) : reported PAMPA_R1 = ?
## Result 2.36E-07

* * *

# condition_notes: PAMPA
Where a SMILES comes first, the peptide text is derived from it. [ ]: non-standard residue; d: D form. NMeF = CN[C@@H](Cc1ccccc1)C(=O)O; dNMeF = CN[C@H](Cc1ccccc1)C(=O)O; NMeL = CN[C@@H](CC(C)C)C(=O)O; dNMeL = CN[C@H](CC(C)C)C(=O)O
measured_attribute: PAMPA_R1

CC(C)C[C@H]1NC(=O)[C@H]2CCCN2C(=O)[C@@H]2CCCN2C(=O)[C@@H](Cc2ccccc2)NC(=O)[C@@H](C(C)C)NC(=O)[C@H](CC(C)C)N(C)C(=O)[C@@H](Cc2ccccc2)NC1=O (single isomer, unassigned) [Design D7.7.p1, PRO DPRO DLEU DPHE *LEU DVAL DPHE]    8.16e-06 cm/s
CC[C@H](C)[C@@H]1NC(=O)[C@@H](CC(C)C)N(C)C(=O)[C@H](CC(C)C)N(C)C(=O)[C@H](C)NC(=O)[C@H]2CCCN2C(=O)[C@@H]2CCCN2C(=O)[C@@H]2CCCN2C(=O)[C@@H](C(C)C)NC1=O [Design D8.28, PRO DPRO ALA *LEU *DLEU ILE DVAL PRO] (cyclo(A[NMeL][dNMeL]I[dV]PP[dP]))    1.45E-06
CC[C@H](C)[C@@H]1NC(=O)[C@@H]2CCCN2C(=O)[C@H](C)NC(=O)[C@@H](Cc2ccccc2)N(C)C(=O)[C@H](C)NC(=O)[C@@H]2CCCN2C(=O)[C@@H](Cc2ccccc2)N(C)C(=O)[C@H](Cc2ccccc2)N(C)C(=O)[C@H](CC(C)C)N(C)C(=O)[C@@H](C(C)C)NC1=O [Design D10.52] (cyclo(API[dV][NMeL][NMeF][dNMeF]PA[dNMeF]))    BQL

* * *

# experiment_summary: Pharmacokinetics and oral bioavailability of D11.2 in male SD rats (IV, PO, SQ)
# Assay type: in vivo
# condition_notes: male, Sprague-Dawley, rat, plasma, subcutaneous, 1 mg/kg, SQ 1 mg/kg, Mean
Where a SMILES comes first, the peptide text is derived from it. [ ]: non-standard residue; d: D form. NMeL = CN[C@@H](CC(C)C)C(=O)O; Sar = CNCC(=O)O
measured_attribute: AUC(0-inf)
Output should be the measured figure followed by the unit it is expressed in.

## Task Entry CC[C@@H](C)[C@H]1NC(=O)[C@@H]2CCCN2C(=O)[C@@H]([C@H](C)CC)NC(=O)CN(C)C(=O)[C@H](CC(C)C)NC(=O)[C@@H](Cc2ccccc2)NC(=O)[C@H](CC(C)C)N(C)C(=O)[C@H]2CCCN2C(=O)[C@@H](CC(C)C)NC(=O)[C@H](CC(C)C)NC(=O)[C@H]2CCCN2C1=O [Design D11.2] (cyclo(L[Sar][dI]P[dI][dP]L[dL][dP][NMeL][dF])) : reported AUC(0-inf) = ?
## Result 903 ng·h/mL

* * *

# experiment_summary: Pharmacokinetics and oral bioavailability of D8.3.p1 and D10.1 in Balb/C female mice (PO, SQ, IV)
# Assay type: in vivo
# condition_notes: mouse, in vivo, sc, 12.2 mg/kg, D10.1 after SQ administration; read-out: plasma half-life T1/2 (converted)
measured_attribute: half-life (h)
The response must be a number in h with no trailing unit.

## Task Entry CC[C@H](C)[C@@H]1NC(=O)[C@@H](CC(C)C)NC(=O)[C@H](CC(C)C)N(C)C(=O)[C@H](Cc2ccccc2)NC(=O)CN(C)C(=O)[C@@H]2CCCN2C(=O)[C@H](C(C)C)NC(=O)[C@H](Cc2ccccc2)N(C)C(=O)[C@H]2CCCN2C(=O)[C@H](CC(C)C)NC1=O [Design D10.1] : reported half-life = ?
## Result 3.75

* * *

Could you please report measured Caco_R1 for the items listed next?
# Tested on: Caco-2 cells
# experiment_summary: Caco-2 permeability assay (apical to basolateral)
# Assay type: in vitro ADME, human
# condition_notes: Caco-2
Where a SMILES comes first, the peptide text is derived from it. [ ]: non-standard residue; d: D form. dNMeF = CN[C@H](Cc1ccccc1)C(=O)O; NMeL = CN[C@@H](CC(C)C)C(=O)O; dNMeL = CN[C@H](CC(C)C)C(=O)O; NMeA = CN[C@@H](C)C(=O)O; Sar = CNCC(=O)O
Reply: number alone, nothing else.

## Task Entry CC[C@@H](C)[C@H]1NC(=O)[C@@H](CC(C)C)NC(=O)[C@H](C(C)C)NC(=O)[C@@H](CC(C)C)N(C)C(=O)[C@@H]2CCCN2C(=O)[C@H](C)NC(=O)[C@H](CC(C)C)N(C)C(=O)[C@H]2CCCN2C(=O)[C@H](C)N(C)C(=O)[C@@H](CC(C)C)N(C)C(=O)[C@@H]2CCCN2C1=O [Design D11.5] (cyclo(AP[dNMeL]V[dL][dI]P[dNMeL][NMeA][dP][NMeL])) : reported Caco_R1 = ?
## Result 2.93

## Task Entry CC[C@@H](C)[C@H]1NC(=O)[C@H]2CCCN2C(=O)[C@@H]2CCCN2C(=O)[C@@H]([C@H](C)CC)NC(=O)[C@@H](Cc2ccccc2)NC(=O)[C@@H](Cc2ccccc2)N(C)C(=O)[C@@H]2CCCN2C(=O)[C@@H](C(C)C)NC1=O [Design D8.33, DPHE DILE PRO DPRO DILE DVAL PRO *DPHE] (cyclo(P[dNMeF][dF][dI]P[dP][dI][dV])) : reported Caco_R1 = ?
## Result 18.4

## Task Entry CC[C@@H](C)[C@H]1NC(=O)[C@@H]2CCCN2C(=O)[C@@H]([C@H](C)CC)NC(=O)CN(C)C(=O)[C@H](CC(C)C)NC(=O)[C@@H](Cc2ccccc2)NC(=O)[C@H](CC(C)C)N(C)C(=O)[C@H]2CCCN2C(=O)[C@@H](CC(C)C)NC(=O)[C@H](CC(C)C)NC(=O)[C@H]2CCCN2C1=O [Design D11.2] (cyclo(L[Sar][dI]P[dI][dP]L[dL][dP][NMeL][dF])) : reported Caco_R1 = ?
## Result 1.94

* * *

# condition_notes: PAMPA
Where a SMILES comes first, the peptide text is derived from it. [ ]: non-standard residue; d: D form. dNMeI = CC[C@@H](C)[C@@H](NC)C(=O)O; NMeF = CN[C@@H](Cc1ccccc1)C(=O)O; NMeL = CN[C@@H](CC(C)C)C(=O)O; dNMeL = CN[C@H](CC(C)C)C(=O)O; NMeV = CN[C@H](C(=O)O)C(C)C; NMeA = CN[C@@H](C)C(=O)O; dNMeA = CN[C@H](C)C(=O)O
measured_attribute: PAMPA_R3

These recorded examples may help you get a feel for the data.
CC[C@H](C)[C@@H]1NC(=O)[C@@H]2CCCN2C(=O)[C@H]2CCCN2C(=O)[C@@H](CC(C)C)NC(=O)[C@@H](CC(C)C)N(C)C(=O)[C@@H](C(C)C)NC(=O)[C@H](C(C)C)NC(=O)[C@H]2CCCN2C(=O)[C@@H]2CCCN2C(=O)[C@H]([C@@H](C)CC)NC(=O)[C@H](C)N(C)C1=O [Design D11.13] (cyclo(I[NMeA]IP[dP]V[dV][dNMeL][dL][dP]P))    1.30E-06
CC[C@@H](C)[C@H]1NC(=O)[C@H](CC(C)C)N(C)C(=O)[C@H]2CCCN2C(=O)[C@H](CC(C)C)NC(=O)[C@@H](Cc2ccccc2)N(C)C(=O)[C@H](CC(C)C)N(C)C(=O)[C@@H](C(C)C)NC(=O)[C@H](C)NC(=O)[C@H]2CCCN2C(=O)[C@@H]2CCCN2C1=O (single isomer, unassigned) [Design D10.60.p1]    1.13E-06
CC[C@@H](C)[C@H]1NC(=O)[C@@H]2CCCN2C(=O)[C@@H](Cc2ccccc2)NC(=O)[C@H](CC(C)C)N(C)C(=O)[C@H](C)NC(=O)[C@H]2CCCN2C(=O)[C@@H]2CCCN2C(=O)[C@H](CC(C)C)NC(=O)[C@H](CC(C)C)N(C)C(=O)[C@H](C)N(C)C1=O [Design D10.26] (cyclo(A[NMeL][dF]P[dI][NMeA][NMeL]LP[dP]))    1.69E-06
CC(C)C[C@H]1NC(=O)[C@@H]2CCCN2C(=O)[C@H]2CCCN2C(=O)[C@H](C(C)C)NC(=O)[C@@H](CC(C)C)NC(=O)[C@@H]2CCCN2C(=O)[C@H]2CCCN2C(=O)[C@H](C(C)C)NC1=O (single isomer, unassigned) [Design D8.12.p2, DLEU VAL DPRO PRO DLEU VAL DPRO PRO]    2.25E-07

## Task Entry CC(C)C[C@@H]1C(=O)N[C@H](CC(C)C)C(=O)N2CCC[C@@H]2C(=O)N2CCC[C@@H]2C(=O)N(C)[C@@H](C)C(=O)N[C@H](Cc2ccccc2)C(=O)N[C@@H](C)C(=O)N(C)[C@@H](CC(C)C)C(=O)N1C [Design D8.10, DPRO DPRO *ALA DPHE ALA *LEU *DLEU DLEU] (cyclo(A[NMeL][dNMeL][dL][dP][dP][NMeA][dF])) : reported PAMPA_R3 = ?
## Result 1.78E-06

## Task Entry CC(C)C[C@@H]1NC(=O)[C@@H](C(C)C)NC(=O)[C@H](CC(C)C)N(C)C(=O)[C@H]2CCCN2C(=O)[C@@H](C(C)C)NC(=O)[C@H]2CCCN2C(=O)[C@@H](C(C)C)NC(=O)[C@@H](Cc2ccccc2)N(C)C(=O)[C@H](CC(C)C)N(C)C1=O (single isomer, unassigned) [Design D9.8.p1] : reported PAMPA_R3 = ?
## Result 6.18E-06

## Task Entry CC[C@@H](C)[C@H]1NC(=O)[C@H]([C@@H](C)CC)NC(=O)[C@H](Cc2ccccc2)N(C)C(=O)[C@H]2CCCN2C(=O)[C@@H]([C@H](C)CC)NC(=O)[C@@H]([C@H](C)CC)N(C)C(=O)[C@H](CC(C)C)NC(=O)[C@H]2CCCN2C(=O)[C@@H]2CCCN2C(=O)[C@H](C(C)C)NC(=O)[C@H]2CCCN2C1=O [Design D11.4] (cyclo(I[dI][dP]VP[dP]L[dNMeI][dI][dP][NMeF])) : reported PAMPA_R3 = ?
## Result 6.73E-07

## Task Entry CC(C)C[C@@H]1C(=O)N[C@H](C(C)C)C(=O)N(C)[C@@H](C(C)C)C(=O)N2CCC[C@H]2C(=O)N2CCC[C@@H]2C(=O)N[C@@H](C)C(=O)N(C)[C@@H](Cc2ccccc2)C(=O)N(C)[C@H](CC(C)C)C(=O)N[C@H](C)C(=O)N1C [Design D9.17] (cyclo(A[NMeF][dNMeL][dA][dNMeL][dV][NMeV]P[dP])) : reported PAMPA_R3 = ?
## Result 4.13E-07

## Task Entry CC[C@@H](C)[C@H]1NC(=O)[C@@H](CC(C)C)N(C)C(=O)[C@@H]2CCCN2C(=O)[C@H]([C@@H](C)CC)NC(=O)[C@H]([C@@H](C)CC)N(C)C(=O)[C@@H](CC(C)C)NC(=O)[C@@H](C(C)C)N(C)C(=O)[C@H]2CCCN2C(=O)[C@@H](C(C)C)NC(=O)[C@@H]2CCCN2C(=O)[C@H]([C@@H](C)CC)NC1=O (single isomer, unassigned) [Design D11.23.p2] : reported PAMPA_R3 = ?
## Result 4.80E-07

## Task Entry CC(C)C[C@@H]1C(=O)N(C)[C@@H](CC(C)C)C(=O)N2CCC[C@@H]2C(=O)N[C@H](CC(C)C)C(=O)N[C@H](C)C(=O)N2CCC[C@@H]2C(=O)N2CCC[C@H]2C(=O)N[C@@H](C)C(=O)N[C@H](Cc2ccccc2)C(=O)N[C@H](CC(C)C)C(=O)N[C@@H](C(C)C)C(=O)N1C (single isomer, unassigned) [Design D11.9.p2] : reported PAMPA_R3 = ?
## Result BQL

## Task Entry CC(C)C[C@H]1NC(=O)[C@H](CC(C)C)N(C)C(=O)[C@@H](Cc2ccccc2)NC(=O)[C@@H](C)N(C)C(=O)[C@@H]2CCCN2C(=O)[C@H](C(C)C)NC(=O)[C@H](CC(C)C)N(C)C(=O)[C@@H](C)NC(=O)[C@@H]2CCCN2C(=O)[C@H]2CCCN2C1=O [Design D10.32] (cyclo([dA][NMeL]VP[dNMeA][dF][NMeL][dL][dP]P)) : reported PAMPA_R3 = ?
## Result 2.80E-06

## Task Entry CC(C)C[C@@H]1C(=O)N2CCC[C@@H]2C(=O)N(C)[C@@H](C(C)C)C(=O)N[C@@H](C(C)C)C(=O)N2CCC[C@H]2C(=O)N2CCC[C@@H]2C(=O)N[C@@H](C)C(=O)N[C@H](C(C)C)C(=O)N(C)[C@@H](CC(C)C)C(=O)N[C@@H](C)C(=O)N1C [Design D10.6] (cyclo(A[dNMeL][dP][NMeV]VP[dP]A[dV][NMeL])) : reported PAMPA_R3 = ?
## Result 7.67E-07

Measured values drawn from paper PMC9490236 for this set.
